Measured kinase still bound, per cent of control by item
Test system: RET (human), P07949 [V804M]
Sequence (P07949 whole entry V804M, looked up): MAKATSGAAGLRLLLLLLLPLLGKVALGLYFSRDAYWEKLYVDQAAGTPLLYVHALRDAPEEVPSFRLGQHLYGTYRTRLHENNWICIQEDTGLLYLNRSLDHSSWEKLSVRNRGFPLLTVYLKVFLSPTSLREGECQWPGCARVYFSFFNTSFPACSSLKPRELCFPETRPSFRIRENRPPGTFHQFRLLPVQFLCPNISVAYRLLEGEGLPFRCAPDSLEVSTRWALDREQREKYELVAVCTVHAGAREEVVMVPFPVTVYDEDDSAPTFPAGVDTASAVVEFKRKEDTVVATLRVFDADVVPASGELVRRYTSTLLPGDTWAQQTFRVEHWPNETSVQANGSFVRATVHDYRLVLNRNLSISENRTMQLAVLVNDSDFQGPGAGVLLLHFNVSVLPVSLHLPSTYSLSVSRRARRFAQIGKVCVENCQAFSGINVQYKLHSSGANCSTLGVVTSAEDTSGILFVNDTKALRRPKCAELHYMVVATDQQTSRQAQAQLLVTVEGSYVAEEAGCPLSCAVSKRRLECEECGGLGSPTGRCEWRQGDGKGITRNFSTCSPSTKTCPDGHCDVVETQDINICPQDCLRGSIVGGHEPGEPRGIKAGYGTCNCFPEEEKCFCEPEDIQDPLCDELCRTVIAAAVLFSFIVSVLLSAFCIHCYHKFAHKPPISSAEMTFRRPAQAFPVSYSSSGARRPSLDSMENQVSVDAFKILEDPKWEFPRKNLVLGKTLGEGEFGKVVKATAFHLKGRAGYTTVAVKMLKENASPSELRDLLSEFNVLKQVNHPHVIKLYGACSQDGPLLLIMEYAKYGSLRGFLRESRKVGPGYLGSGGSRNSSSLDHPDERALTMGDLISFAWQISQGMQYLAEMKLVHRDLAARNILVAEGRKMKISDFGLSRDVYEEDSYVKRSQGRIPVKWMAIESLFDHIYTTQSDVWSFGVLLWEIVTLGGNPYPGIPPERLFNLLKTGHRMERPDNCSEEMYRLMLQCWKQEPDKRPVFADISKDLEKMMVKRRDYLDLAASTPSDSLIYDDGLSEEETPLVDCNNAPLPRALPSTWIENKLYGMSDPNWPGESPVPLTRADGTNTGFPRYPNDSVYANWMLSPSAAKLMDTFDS
Test: KINOMEscan competition binding
Conditions: compound 10.0 µM

- COc1cc(N2CCN(C)CC2)ccc1Nc1ncc2c(n1)N(C)c1sccc1C(=O)N2C: 88%

Input CN1C(=O)c2ccccc2N(C)c2nc(NS(=O)(=O)c3ccc(N)cc3)ncc21 , output reported kinase still bound, per cent of control.
100%

Input N=C1NC(=O)/C(=C/c2ccc(-c3cncc4ccccc34)o2)S1 , output reported kinase still bound, per cent of control.
16%

Input COc1cc(N2CCN(C)CC2)ccc1Nc1ncc2c(n1)Nc1ccccc1NC2=O , output reported kinase still bound, per cent of control.
100%

Input N=C1NC(=O)/C(=C/c2ccc(-c3cnc4ccccc4c3)o2)S1 , output reported kinase still bound, per cent of control.
10%

Input CN1C(=O)c2ccccc2N(C)c2nc(Nc3ccc(N4CCC(O)CC4)cc3)ncc21 , output reported kinase still bound, per cent of control.
3%

Input COc1cc(N2CCN(C)CC2)ccc1Nc1ncc2c(n1)N(C)c1ccccc1N(C)C2=O , output reported kinase still bound, per cent of control.
100%

Input O=C1NC(=O)/C(=C/c2c[nH]c(=O)c(-c3ccc(N4CCNCC4)nc3)c2)S1 , output reported kinase still bound, per cent of control.
88%

Input CN1CCN(c2ccc(C(=O)Nc3ncc4c(n3)N(C)c3ccccc3C(=O)N4C)cc2)CC1 , output reported kinase still bound, per cent of control.
100%

Input COc1cc(N2CCC(O)CC2)ccc1Nc1ncc2c(n1)N1CCc3cccc(c31)C(=O)N2C , output reported kinase still bound, per cent of control.
93%
